Target: NOS1, P29475
Sequence (P29475 9-101): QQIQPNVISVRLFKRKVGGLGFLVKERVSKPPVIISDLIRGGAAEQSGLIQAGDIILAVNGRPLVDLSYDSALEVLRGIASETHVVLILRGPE
Experiment: holdup assay
Parameters: key: below the threshold = too weak to quantify, mostly under pKd 3.1 to 4
Details: plain residues with an end cap or a label only (N-terminal biotin on a linker: ado-ado)
Measured Property: pKd
Form field (numeric): enter value without unit.

Some binders with recorded pKd:
PLPPEEESWV [GAS2L2, Q8NHY3]    4.06
PEKVSNTTVV [IGSF5, Q9NSI5]    3.64
DLLGGGSDSI [TNRC6B, Q9UPQ9]    3.9

Exercise: Item under review: SKQFDKNAYV [CLDN10, P78369] . Reported pKd?
Key: 3.61

Exercise: Also need HYPASPDSWV [CTNND2, Q9UQB3] , thanks.
Key: 3.86

Exercise: Also need PALKNGQYWV [CSPG4, Q6UVK1] , thanks.
Key: 4.09

Exercise: Also need GNDPDRGTSI [GRID2, O43424] , thanks.
Key: 3.75

Exercise: Also need TNSKQGETTV [FZD1, Q9UP38] , thanks.
Key: 3.53

Exercise: Also need IKLETKKTKL [SLC15A2, Q16348] , thanks.
Key: 3.61
